Assay: Plasma concentration in mouse at 33 mg/kg, po after 4 hrs
Format: ADME, organism-based
Set-up: dose 33 mg/kg, route oral
PROPERTY_MEASURED: concentration at 4 h (ng/mL)
Express it in ng/mL; write the number only.

Identify measured concentration at 4 h corresponding to Cc1cnc(Nc2ccc(F)cc2Cl)nc1-c1c[nH]c(C(=O)N[C@H](CO)c2cccc(Cl)c2)c1
488

###

Target: Interleukin-1 receptor-associated kinase 4 (Homo sapiens, UniProt Q9NWZ3)
Sequence (Q9NWZ3 whole entry): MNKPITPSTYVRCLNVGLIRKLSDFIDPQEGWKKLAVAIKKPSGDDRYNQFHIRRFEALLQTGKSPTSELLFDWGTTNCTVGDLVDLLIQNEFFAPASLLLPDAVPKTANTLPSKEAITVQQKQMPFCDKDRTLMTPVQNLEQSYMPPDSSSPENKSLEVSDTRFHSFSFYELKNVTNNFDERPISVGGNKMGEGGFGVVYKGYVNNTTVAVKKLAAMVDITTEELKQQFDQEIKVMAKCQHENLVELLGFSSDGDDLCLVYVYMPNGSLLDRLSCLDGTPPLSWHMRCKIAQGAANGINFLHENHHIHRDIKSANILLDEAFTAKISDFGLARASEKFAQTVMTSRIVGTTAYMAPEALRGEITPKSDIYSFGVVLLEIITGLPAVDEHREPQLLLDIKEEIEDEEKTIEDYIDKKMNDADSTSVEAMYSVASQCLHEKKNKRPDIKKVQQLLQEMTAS
PROPERTY_MEASURED: Ki

Identify measured Ki corresponding to Cc1cnc(Nc2ccc(F)cc2Cl)nc1-c1c[nH]c(C(=O)N[C@H](CO)c2cccc(Cl)c2)c1
> 4 µM

###

Molecular target: Proto-oncogene tyrosine-protein kinase Src (Homo sapiens)
Sequence (P12931 2-536 limits assumed): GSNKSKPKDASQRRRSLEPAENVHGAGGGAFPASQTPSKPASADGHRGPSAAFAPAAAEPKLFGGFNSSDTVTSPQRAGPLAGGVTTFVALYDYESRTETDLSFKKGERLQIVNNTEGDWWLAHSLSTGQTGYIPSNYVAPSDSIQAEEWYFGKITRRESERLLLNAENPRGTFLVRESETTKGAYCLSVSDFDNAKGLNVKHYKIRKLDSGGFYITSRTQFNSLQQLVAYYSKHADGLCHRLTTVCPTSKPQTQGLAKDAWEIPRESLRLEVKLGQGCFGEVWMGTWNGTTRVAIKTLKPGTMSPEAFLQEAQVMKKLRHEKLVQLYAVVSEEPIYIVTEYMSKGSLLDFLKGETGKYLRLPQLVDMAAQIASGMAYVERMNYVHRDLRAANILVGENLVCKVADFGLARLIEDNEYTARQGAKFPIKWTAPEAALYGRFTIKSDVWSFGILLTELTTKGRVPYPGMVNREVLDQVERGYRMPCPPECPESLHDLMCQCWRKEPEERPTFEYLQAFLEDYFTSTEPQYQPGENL
PROPERTY_MEASURED: Ki

Identify measured Ki corresponding to Cc1cnc(Nc2ccc(F)cc2Cl)nc1-c1c[nH]c(C(=O)N[C@H](CO)c2cccc(Cl)c2)c1
> 4 µM

###

Molecular target: Dual specificity mitogen-activated protein kinase kinase 1 (Homo sapiens)
Sequence (Q02750 whole entry): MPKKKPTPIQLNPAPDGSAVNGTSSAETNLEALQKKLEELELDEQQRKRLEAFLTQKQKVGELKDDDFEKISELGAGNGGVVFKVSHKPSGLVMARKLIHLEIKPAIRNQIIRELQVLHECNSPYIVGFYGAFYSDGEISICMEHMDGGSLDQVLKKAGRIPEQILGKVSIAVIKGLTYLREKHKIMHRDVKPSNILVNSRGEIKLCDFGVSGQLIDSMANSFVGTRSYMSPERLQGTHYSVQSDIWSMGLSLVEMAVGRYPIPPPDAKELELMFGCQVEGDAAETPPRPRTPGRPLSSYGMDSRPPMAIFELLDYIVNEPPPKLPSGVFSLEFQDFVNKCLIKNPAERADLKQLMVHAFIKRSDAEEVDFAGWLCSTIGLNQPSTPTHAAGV
Test: Inhibition of MEK1
PROPERTY_MEASURED: Ki

Identify measured Ki corresponding to Cc1cnc(Nc2ccc(F)cc2Cl)nc1-c1c[nH]c(C(=O)N[C@H](CO)c2cccc(Cl)c2)c1
> 4 µM

###

Biological target: Receptor-type tyrosine-protein kinase FLT3 (Homo sapiens, UniProt P36888)
Sequence (P36888 whole entry): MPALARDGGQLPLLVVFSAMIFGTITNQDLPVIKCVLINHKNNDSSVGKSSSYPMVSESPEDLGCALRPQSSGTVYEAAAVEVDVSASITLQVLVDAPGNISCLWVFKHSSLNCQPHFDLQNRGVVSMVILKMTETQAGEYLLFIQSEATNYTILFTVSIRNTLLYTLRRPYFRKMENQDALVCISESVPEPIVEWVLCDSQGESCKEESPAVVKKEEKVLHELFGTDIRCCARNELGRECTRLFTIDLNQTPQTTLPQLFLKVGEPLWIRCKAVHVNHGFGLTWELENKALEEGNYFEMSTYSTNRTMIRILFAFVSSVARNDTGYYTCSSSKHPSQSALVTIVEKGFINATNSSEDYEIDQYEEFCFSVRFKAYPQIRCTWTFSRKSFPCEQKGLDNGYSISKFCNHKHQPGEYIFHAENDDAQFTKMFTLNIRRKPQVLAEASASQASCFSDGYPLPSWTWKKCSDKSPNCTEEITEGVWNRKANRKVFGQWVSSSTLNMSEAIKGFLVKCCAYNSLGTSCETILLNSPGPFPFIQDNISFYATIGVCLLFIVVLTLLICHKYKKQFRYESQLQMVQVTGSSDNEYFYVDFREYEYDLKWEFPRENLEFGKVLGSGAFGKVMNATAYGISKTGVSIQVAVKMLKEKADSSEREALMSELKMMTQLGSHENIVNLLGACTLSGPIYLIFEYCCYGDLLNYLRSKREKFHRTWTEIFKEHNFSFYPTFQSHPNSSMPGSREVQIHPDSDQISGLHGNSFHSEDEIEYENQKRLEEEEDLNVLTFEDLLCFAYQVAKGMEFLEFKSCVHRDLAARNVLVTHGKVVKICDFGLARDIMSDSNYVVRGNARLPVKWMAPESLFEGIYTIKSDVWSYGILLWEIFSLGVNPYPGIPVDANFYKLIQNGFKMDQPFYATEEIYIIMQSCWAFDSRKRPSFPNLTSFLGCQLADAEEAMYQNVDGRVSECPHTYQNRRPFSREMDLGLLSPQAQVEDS
PROPERTY_MEASURED: pKi
By convention, pKi is the negative base-10 log of a molar concentration.

Identify measured pKi corresponding to Cc1cnc(Nc2ccc(F)cc2Cl)nc1-c1c[nH]c(C(=O)N[C@H](CO)c2cccc(Cl)c2)c1
5.85

###

PROPERTY_MEASURED: pKi
By convention, pKi is the negative base-10 log of a molar concentration.

For Mitogen-activated protein kinase 1 (Homo sapiens), give pKi of the listed compound: CCc1ccccc1Nc1ncc(C)c(-c2c[nH]c(C(=O)N[C@H](CO)c3ccccc3)c2)n1
8.52

For Mitogen-activated protein kinase 1 (Homo sapiens), give pKi of the listed compound: Cc1cnc(Nc2cccc3c2CCCC3)nc1-c1c[nH]c(C(=O)N[C@H](CO)c2cccc(Cl)c2)c1
7.89

For Mitogen-activated protein kinase 1 (Homo sapiens), give pKi of the listed compound: Cc1cnc(Nc2cccc(F)c2C)nc1-c1c[nH]c(C(=O)N[C@H](CO)c2cccc(Cl)c2)c1
7.47

For Mitogen-activated protein kinase 1 (Homo sapiens), give pKi of the listed compound: Cc1cnc(Nc2ccccc2)nc1-c1c[nH]c(C(=O)N[C@@H](CO)c2ccccc2)c1
6.17

For Mitogen-activated protein kinase 1 (Homo sapiens), give pKi of the listed compound: Cc1cnc(Nc2ccccc2O)nc1-c1c[nH]c(C(=O)N[C@H](CO)c2ccccc2)c1
8.40

For Mitogen-activated protein kinase 1 (Homo sapiens), give pKi of the listed compound: Cc1cc(Cl)ccc1Nc1ncc(C)c(-c2c[nH]c(C(=O)N[C@H](CO)c3cccc(Cl)c3)c2)n1
8.30

For Mitogen-activated protein kinase 1 (Homo sapiens), give pKi of the listed compound: COc1cccc(Nc2ncc(C)c(-c3c[nH]c(C(=O)N[C@H](CO)c4cccc(Cl)c4)c3)n2)c1OC
8.52

For Mitogen-activated protein kinase 1 (Homo sapiens), give pKi of the listed compound: Cc1cnc(Nc2cccc3c2OCCO3)nc1-c1c[nH]c(C(=O)N[C@H](CO)c2cccc(Cl)c2)c1
7.82

For Mitogen-activated protein kinase 1 (Homo sapiens), give pKi of the listed compound: Cc1cnc(Nc2ccc(Cl)cc2F)nc1-c1c[nH]c(C(=O)N[C@H](CO)c2cccc(Cl)c2)c1
8.30

###

Target: Tyrosine-protein kinase JAK2 (Homo sapiens)
Sequence (O60674 whole entry): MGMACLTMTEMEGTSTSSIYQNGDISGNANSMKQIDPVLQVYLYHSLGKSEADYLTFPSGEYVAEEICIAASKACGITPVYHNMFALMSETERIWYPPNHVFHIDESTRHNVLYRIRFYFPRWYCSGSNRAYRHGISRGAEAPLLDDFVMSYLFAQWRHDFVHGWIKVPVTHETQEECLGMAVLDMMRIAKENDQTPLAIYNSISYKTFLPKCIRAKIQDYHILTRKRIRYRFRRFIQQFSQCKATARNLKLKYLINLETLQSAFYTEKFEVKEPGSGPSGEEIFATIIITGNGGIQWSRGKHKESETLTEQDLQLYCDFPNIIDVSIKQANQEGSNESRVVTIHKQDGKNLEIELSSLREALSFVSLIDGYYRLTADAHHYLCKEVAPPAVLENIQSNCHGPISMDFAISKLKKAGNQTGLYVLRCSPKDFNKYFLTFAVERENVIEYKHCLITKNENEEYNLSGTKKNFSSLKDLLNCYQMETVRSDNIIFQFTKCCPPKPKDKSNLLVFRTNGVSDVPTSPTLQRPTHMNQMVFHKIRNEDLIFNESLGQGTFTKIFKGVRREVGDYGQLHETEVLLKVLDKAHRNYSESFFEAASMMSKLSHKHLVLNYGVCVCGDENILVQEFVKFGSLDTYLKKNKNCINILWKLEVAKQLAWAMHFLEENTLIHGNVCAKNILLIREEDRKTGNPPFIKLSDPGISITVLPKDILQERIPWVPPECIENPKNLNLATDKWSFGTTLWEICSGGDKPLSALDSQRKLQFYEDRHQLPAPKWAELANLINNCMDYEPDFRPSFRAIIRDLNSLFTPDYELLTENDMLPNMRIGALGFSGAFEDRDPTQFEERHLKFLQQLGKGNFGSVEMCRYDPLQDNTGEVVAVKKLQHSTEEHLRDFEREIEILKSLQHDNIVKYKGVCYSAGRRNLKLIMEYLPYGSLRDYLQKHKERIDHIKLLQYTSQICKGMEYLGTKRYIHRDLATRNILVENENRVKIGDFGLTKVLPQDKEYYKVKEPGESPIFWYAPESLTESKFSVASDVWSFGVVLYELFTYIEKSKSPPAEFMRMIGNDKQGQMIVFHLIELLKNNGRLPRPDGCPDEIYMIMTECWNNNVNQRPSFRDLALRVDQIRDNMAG
PROPERTY_MEASURED: Ki

Identify measured Ki corresponding to Cc1cnc(Nc2ccc(F)cc2Cl)nc1-c1c[nH]c(C(=O)N[C@H](CO)c2cccc(Cl)c2)c1
> 4 µM

###

PROPERTY_MEASURED: Ki

For Rho-associated protein kinase 1 (Homo sapiens, UniProt Q13464), give Ki of the listed compound: Cc1cnc(Nc2ccc(F)cc2Cl)nc1-c1c[nH]c(C(=O)N[C@H](CO)c2cccc(Cl)c2)c1
1400 nM

###

Assay: Distribution coefficient, log D of the compound
Assay type: physicochemical
Settings: octanol/water
PROPERTY_MEASURED: logD
Respond numerically, and do not add a unit to the figure.

Identify measured logD corresponding to Cc1cnc(Nc2ccc(F)cc2Cl)nc1-c1c[nH]c(C(=O)N[C@H](CO)c2cccc(Cl)c2)c1
4.3

###

Biological target: Citron Rho-interacting kinase (Homo sapiens)
Sequence (O14578 whole entry): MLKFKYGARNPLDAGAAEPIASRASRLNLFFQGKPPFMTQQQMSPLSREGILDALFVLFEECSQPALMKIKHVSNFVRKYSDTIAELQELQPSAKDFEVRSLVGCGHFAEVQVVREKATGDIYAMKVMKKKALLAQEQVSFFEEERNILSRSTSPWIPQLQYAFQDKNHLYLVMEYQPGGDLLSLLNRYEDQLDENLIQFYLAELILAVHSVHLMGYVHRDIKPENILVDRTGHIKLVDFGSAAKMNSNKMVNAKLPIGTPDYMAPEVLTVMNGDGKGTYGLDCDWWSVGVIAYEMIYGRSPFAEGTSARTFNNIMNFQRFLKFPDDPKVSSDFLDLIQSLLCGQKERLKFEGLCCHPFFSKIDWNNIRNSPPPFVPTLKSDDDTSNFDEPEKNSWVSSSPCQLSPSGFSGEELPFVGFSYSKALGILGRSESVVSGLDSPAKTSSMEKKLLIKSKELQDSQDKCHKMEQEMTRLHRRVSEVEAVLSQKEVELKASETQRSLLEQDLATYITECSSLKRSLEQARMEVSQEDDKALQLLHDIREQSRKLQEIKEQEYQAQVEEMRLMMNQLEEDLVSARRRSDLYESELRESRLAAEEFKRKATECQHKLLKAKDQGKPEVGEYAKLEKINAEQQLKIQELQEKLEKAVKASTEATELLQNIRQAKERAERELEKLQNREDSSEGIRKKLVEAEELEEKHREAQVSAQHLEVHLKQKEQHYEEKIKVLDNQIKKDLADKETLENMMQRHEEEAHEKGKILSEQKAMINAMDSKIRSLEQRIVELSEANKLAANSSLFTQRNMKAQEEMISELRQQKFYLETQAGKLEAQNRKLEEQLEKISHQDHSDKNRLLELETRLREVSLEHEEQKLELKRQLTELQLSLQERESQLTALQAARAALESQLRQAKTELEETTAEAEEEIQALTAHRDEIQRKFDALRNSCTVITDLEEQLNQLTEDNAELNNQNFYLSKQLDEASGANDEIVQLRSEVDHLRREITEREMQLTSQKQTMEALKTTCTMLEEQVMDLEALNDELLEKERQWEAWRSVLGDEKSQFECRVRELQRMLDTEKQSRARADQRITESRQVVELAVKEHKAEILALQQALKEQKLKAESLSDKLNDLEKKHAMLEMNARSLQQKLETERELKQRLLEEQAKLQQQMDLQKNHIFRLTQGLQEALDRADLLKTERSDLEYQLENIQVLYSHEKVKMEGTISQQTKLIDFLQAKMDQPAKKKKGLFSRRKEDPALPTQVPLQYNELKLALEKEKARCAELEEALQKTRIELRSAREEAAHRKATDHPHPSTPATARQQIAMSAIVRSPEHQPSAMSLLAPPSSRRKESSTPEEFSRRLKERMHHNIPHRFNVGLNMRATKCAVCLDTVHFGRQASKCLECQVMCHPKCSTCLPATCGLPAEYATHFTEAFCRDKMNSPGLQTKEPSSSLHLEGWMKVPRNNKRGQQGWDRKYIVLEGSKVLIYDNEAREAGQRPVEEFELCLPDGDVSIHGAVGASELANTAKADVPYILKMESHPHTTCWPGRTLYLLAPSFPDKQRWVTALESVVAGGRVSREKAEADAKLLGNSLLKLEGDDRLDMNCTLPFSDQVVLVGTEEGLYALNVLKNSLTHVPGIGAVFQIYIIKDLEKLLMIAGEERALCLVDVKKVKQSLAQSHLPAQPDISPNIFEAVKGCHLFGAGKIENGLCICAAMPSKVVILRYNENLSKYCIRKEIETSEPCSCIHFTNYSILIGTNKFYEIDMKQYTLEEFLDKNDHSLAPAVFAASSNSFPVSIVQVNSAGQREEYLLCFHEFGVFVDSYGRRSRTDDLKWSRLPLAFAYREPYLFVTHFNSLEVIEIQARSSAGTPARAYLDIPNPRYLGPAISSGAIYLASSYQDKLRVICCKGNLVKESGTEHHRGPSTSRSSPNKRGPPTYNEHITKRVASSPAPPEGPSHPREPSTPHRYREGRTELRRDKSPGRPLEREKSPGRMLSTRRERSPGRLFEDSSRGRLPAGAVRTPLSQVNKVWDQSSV
PROPERTY_MEASURED: Ki

Identify measured Ki corresponding to Cc1cnc(Nc2ccc(F)cc2Cl)nc1-c1c[nH]c(C(=O)N[C@H](CO)c2cccc(Cl)c2)c1
> 10 µM

###

Molecular target: Tyrosine-protein kinase JAK3 (Homo sapiens)
Sequence (P52333 whole entry): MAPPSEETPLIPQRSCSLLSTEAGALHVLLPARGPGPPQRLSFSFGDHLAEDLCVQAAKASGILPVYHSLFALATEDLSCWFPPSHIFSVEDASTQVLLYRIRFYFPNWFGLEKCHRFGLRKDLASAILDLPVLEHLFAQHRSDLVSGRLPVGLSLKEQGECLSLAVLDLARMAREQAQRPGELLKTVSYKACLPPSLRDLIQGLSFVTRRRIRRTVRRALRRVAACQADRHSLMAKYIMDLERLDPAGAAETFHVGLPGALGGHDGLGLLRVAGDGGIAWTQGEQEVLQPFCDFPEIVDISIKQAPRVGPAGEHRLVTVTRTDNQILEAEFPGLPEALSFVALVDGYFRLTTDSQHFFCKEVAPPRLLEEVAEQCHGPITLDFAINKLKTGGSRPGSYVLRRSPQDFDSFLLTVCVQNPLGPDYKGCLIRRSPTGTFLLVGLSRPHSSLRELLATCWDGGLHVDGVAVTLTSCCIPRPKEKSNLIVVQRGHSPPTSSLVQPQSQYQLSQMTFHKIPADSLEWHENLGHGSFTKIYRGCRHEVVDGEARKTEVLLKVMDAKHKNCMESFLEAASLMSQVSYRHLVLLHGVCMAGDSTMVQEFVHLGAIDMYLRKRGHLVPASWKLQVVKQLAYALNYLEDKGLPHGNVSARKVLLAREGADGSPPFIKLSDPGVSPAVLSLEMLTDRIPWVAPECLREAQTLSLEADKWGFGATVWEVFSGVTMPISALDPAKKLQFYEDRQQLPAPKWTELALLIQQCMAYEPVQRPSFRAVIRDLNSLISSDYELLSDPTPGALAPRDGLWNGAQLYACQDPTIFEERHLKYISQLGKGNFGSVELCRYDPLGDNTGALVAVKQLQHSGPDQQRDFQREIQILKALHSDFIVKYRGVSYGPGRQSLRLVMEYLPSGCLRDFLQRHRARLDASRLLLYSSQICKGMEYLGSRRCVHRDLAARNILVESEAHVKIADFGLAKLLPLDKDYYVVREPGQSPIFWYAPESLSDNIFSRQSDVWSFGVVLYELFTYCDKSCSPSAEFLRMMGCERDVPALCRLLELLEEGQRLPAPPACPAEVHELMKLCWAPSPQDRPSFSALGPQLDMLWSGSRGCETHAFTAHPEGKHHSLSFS
PROPERTY_MEASURED: Ki

Identify measured Ki corresponding to Cc1cnc(Nc2ccc(F)cc2Cl)nc1-c1c[nH]c(C(=O)N[C@H](CO)c2cccc(Cl)c2)c1
> 4 µM

Source of measurements: ChEMBL document CHEMBL1154622
